Test: in vitro
Details: human, HeLa cells
property name: CC50

Req: Output CC50 of C[N+](C)(C)CCOP(=O)([O-])OP(=O)([O-])OC[C@H]1O[C@@H](n2ccc(NO)nc2=O)[C@H](O)[C@@H]1O.[Na+] [Example 1, mono sodium salt]
Resp: > 25 µM

---

For each entry below, report its recovery at 10 µM value.
Assay: A-B permeability (Caco-2, pH 6.5/7.4)
Details: human, Caco-2, pH 6.5, Percent Recovery 1st, A-B, Caco-2, pH 6.5/7.4; test conc. 1.0E−05M
Field format: number, assumed %, no unit text.

Req: For the molecule C[N+](C)(C)CCOP(=O)([O-])OP(=O)([O-])OC[C@H]1O[C@@H](n2ccc(NO)nc2=O)[C@H](O)[C@@H]1O.[Na+] [Example 1, mono sodium salt] , give its reported recovery at 10 µM.
Resp: 121

Req: Please report recovery at 10 µM for the following molecule: CC(C)C(=O)OC[C@H]1O[C@@H](n2ccc(NO)nc2=O)[C@H](O)[C@@H]1O [molnupiravir, reference compound]
Resp: 70

All figures here come from patent US20250032527A1.
